The measurements presented in this section are drawn from the supplement of paper PMC10307832.

tested on: NCI-H1355; assay: relative viability (nuclei count vs DMSO), 5 days (fraction); higher = more cells survive; settings: first compound 0.3162 µM
quantity measured: relative viability
Answers are plain numbers.

// solved cases for relative viability follow
CC(C)Oc1cc(Nc2nc(N[C@@H](C)c3ccc(F)cn3)ncc2Cl)n[nH]1 [AZ23] + O=C(c1cc(Cc2n[nH]c(=O)c3ccccc23)ccc1F)N1CCN(C(=O)C2CC2)CC1 [Olaparib] (partner 8 µM)
0.699
CC(C)Oc1cc(Nc2nc(N[C@@H](C)c3ccc(F)cn3)ncc2Cl)n[nH]1 [AZ23] + CC(=O)c1c(C)c2cnc(Nc3ccc(N4CCNCC4)cn3)nc2n(C2CCCC2)c1=O [Palbociclib] (partner 0.5 µM)
0.375
CC(C)Oc1cc(Nc2nc(N[C@@H](C)c3ccc(F)cn3)ncc2Cl)n[nH]1 [AZ23] + C[C@]1(O)C[C@@H](c2nc(-c3ccc4ccc(-c5ccccc5)nc4c3)c3c(N)nccn32)C1 [Linsitinib] (partner 1 µM)
0.724

Please give relative viability, item by item, for the list that follows.
1. CC(C)Oc1cc(Nc2nc(N[C@@H](C)c3ccc(F)cn3)ncc2Cl)n[nH]1 [AZ23] + Nc1nc2[nH]cc(CCc3ccc(C(=O)N[C@@H](CCC(=O)O)C(=O)O)cc3)c2c(=O)[nH]1 [Pemetrexed] (partner 0.2 µM)
2. CC(C)Oc1cc(Nc2nc(N[C@@H](C)c3ccc(F)cn3)ncc2Cl)n[nH]1 [AZ23] + Cc1nc(NC(=O)N2CCC[C@H]2C(N)=O)sc1-c1ccnc(C(C)(C)C(F)(F)F)c1 [Alpelisib] (partner 2 µM)
3. CC(C)Oc1cc(Nc2nc(N[C@@H](C)c3ccc(F)cn3)ncc2Cl)n[nH]1 [AZ23] + Nc1ncn([C@H]2C[C@H](O)[C@@H](CO)O2)c(=O)n1 [Decitabine] (partner 2 µM)

a:
1. 1.05
2. 0.782
3. 0.333

Please give relative viability, item by item, for the list that follows.
1. CC(C)Oc1cc(Nc2nc(N[C@@H](C)c3ccc(F)cn3)ncc2Cl)n[nH]1 [AZ23] + COc1cc2c(Oc3ccc(NC(=O)C4(C(=O)Nc5ccc(F)cc5)CC4)cc3F)ccnc2cc1OCCCN1CCOCC1 [Foretinib] (partner 0.25 µM)
2. CC(C)Oc1cc(Nc2nc(N[C@@H](C)c3ccc(F)cn3)ncc2Cl)n[nH]1 [AZ23] + C[C@@H](Oc1cc(-c2cnn(C3CCNCC3)c2)cnc1N)c1c(Cl)ccc(F)c1Cl [Crizotinib] (partner 1 µM)

a:
[1.01, 1.09]
